- ASSAY DETAILS: Log P (Octanol:buffer pH 7.4)
- Format: physicochemical
Kindly supply the reported logD values for the records listed here.

Some solved entries appear below for comparison.
Nc1ccc(-c2nc3ccccc3s2)cc1Cl = > 3.3
Nc1ccc(-c2nc3ccccc3s2)cc1I = > 3.3

Proceeding to the next compound to report its logD.
Task: Report logD for "Nc1ccc(-c2nc3ccccc3s2)cc1Br" please.
Output: > 3.3
